# System: OVCAR-3 ovarian
# testMethodNotes: NCI-60 one-dose screen, 48 h
# assaySetup: 10 µM unless noted
About 83,000 compounds went through this panel and 20% of them were active in at least one assay; those are over-represented in the sample as a whole. The source made the active and inactive calls. The calls were made as follows: active = growth percent below 10; inactive = the rest.
The reply should name one outcome from Yes = active, No = inactive

For this compound, state the assay outcome: `Nc1nn2c(-c3cc4cc(Br)ccc4oc3=O)ccnc2c1N=Nc1ccc(Br)cc1`
Yes

Check the results log: what was the call for `C=CCSc1nnc(-c2c(C)nc3sccn23)o1` ?
No

Per the assay record, what outcome was assigned to `C#CCCCNCCNc1ccnc2cc(Cl)ccc12` ?
No

Per the assay record, what outcome was assigned to Fc1cccc(CNc2nc(SCCN3CCOCC3)nc3c2cnn3CC(Cl)c2ccc(Br)cc2)c1 (stereo not given) ?
No

Any idea what this test logged for `Cc1ccc(-c2cc(C(=O)N=Nc3c(O)[nH]c4ccc(F)cc34)c3ccccc3n2)cc1` ?
No
